FYI, the data here is from PubChem BioAssay.

compounds and their reported composite z-score
# assay remarks: binders of probe aFGF10 on microarray, primary screen, stem cell growth factor project, biochemical, small-molecule microarray, fluorescence 635/667 (AID 1071);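 note: score merges 667 nm spot intensity and signal to noise from triplicate slides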
# conditions used: higher = more signal

{"compound": "COC(=O)[C@]1(Cc2ccccc2N=[N+]=[N-])N=C(c2ccc(OCCCO)cc2)O[C@@H]1c1ccccc1N=[N+]=[N-]", "composite z-score": -0.102}
{"compound": "COCCOC(=O)N1C(=O)[C@@]2(c3cc(C#CCNC(N)=O)ccc31)[C@H](c1ccc(OCCO)cc1)N1[C@H](c3ccccc3)[C@H](c3ccccc3)OC(=O)[C@H]1[C@@H]2C(=O)N1CCc2cc(OC)c(OC)cc2C1", "composite z-score": 0.164}
{"compound": "CCCCC(O)C1C=CC2C(=O)N(C3CCCCC3)C(=O)C2N1Nc1ccc(OC)cc1 (stereo unspecified)", "composite z-score": 0.441}
{"compound": "COc1ccc(C(O)C2C=CC3C(=O)NC(=O)C3N2Nc2ccccn2)cc1OCc1ccccc1 (stereo unspecified)", "composite z-score": 0.177}
{"compound": "CCCCCN1CC=CC23O[C@@H]4C=CCOC(=O)[C@@H]4[C@H]2C(=O)N(CCCO)[C@@H]3C1=O (stereo partly specified)", "composite z-score": -0.549}
{"compound": "COCCCNC(=O)[C@@]1(c2ccc([N+](=O)[O-])cc2)CC(=O)N(CC23CC4CC(CC(C4)C2)C3)[C@@H]1c1ccc(CO)cc1", "composite z-score": 0.264}
{"compound": "C=CCN1C(=O)[C@]2(O[C@H](CCO)[C@@H]([Si](C)(C)c3ccc(OC)cc3)[C@@H]2C)c2cc(NC(=O)[C@H](C)O)ccc21", "composite z-score": 1.08}
{"compound": "COc1cccc(C(=O)O[C@H]2CC[C@]3(C)C4=C(CCC3C2(C)C)[C@]2(C)CC[C@H]([C@H](C)CCCC(C)C)[C@@]2(C)CC4)c1 (stereo partly specified)", "composite z-score": 0.366}
{"compound": "CCOC(=O)C[C@H]1[C@H](OC(=O)c2ccccc2-c2ccccc2)[C@@H](NC(=O)Cc2ccc(OC)cc2)c2cc(OCCCO)ccc2N1C(=O)c1ccccc1", "composite z-score": 0.321}
{"compound": "C=CCOC(=O)[C@@H]1[C@H]2C(=O)O[C@H](c3ccccc3)[C@H](c3ccccc3)N2[C@H](c2ccc(OCCOC(=O)[C@@H]3C[C@@H]4C(=O)NCC(=O)N4[C@@H]3c3cccc(OCCO)c3)cc2)[C@@]12C(=O)Nc1ccc(I)cc12", "composite z-score": 0.818}
{"compound": "COC(=O)[C@@]1(Cc2ccccc2)N=C(c2ccc(OCCCO)cc2)O[C@H]1c1ccccc1N=[N+]=[N-]", "composite z-score": 0.123}
{"compound": "O=C1O[C@H](c2ccccc2)[C@H](c2ccccc2)N2[C@H]1[C@@H](C(=O)NC[C@H](O)c1ccccc1)[C@]1(C(=O)Nc3ccc(C#CCCO)cc31)[C@H]2c1ccc(O)cc1", "composite z-score": -0.465}
{"compound": "C=CC[C@]1(C(=O)N2CCOCC2)N=C(c2ccc(OCCCO)cc2)O[C@H]1c1ccccc1", "composite z-score": 0.147}
{"compound": "COCCOC(=O)N1C(=O)[C@@]2(c3cc(C#CCC(C(=O)OC)C(=O)OC)ccc31)[C@H](c1ccccc1OCCO)N1[C@H](c3ccccc3)[C@H](c3ccccc3)OC(=O)[C@H]1[C@@H]2C(=O)N1CCc2cc(OC)c(OC)cc2C1", "composite z-score": 0.319}
{"compound": "CC(=O)NCCCC[C@@H]1NC(=O)[C@@H]2C[C@H](C(=O)NCCCCCCNC(=O)CS)[C@H](c3ccc(O)cc3)N2C1=O", "composite z-score": -0.1}
{"compound": "CC(C)C(=C=CC[C@@H](O)c1ccccc1OCCO)C[C@@H](O)c1ccccn1", "composite z-score": 0.477}
{"compound": "CC(C)=CCCC(C)=CC(O)C1C=CC2C(=O)N(c3ccccc3)C(=O)C2N1Nc1ccccc1 (stereo unspecified)", "composite z-score": 1.16}
{"compound": "CC(C)(C)OC(=O)CC[C@@]1(C(=O)NCCN2CCOCC2)N=C(c2ccc(OCCCO)cc2)O[C@@H]1c1ccccc1", "composite z-score": 0.262}
{"compound": "COC(=O)[C@@]1(Cc2ccccc2)[C@H]2c3cc(C(=O)N4CCCC4)n(Cc4ccc(C)o4)c3C[C@H]2CN1C(=O)c1ccccc1", "composite z-score": 0.0426}
{"compound": "COCCOC(=O)N1C(=O)[C@@]2(c3cc(C#CCC(C(=O)OC)C(=O)OC)ccc31)[C@H](C(=O)N1CCCCCCC1)[C@H]1C(=O)O[C@H](c3ccccc3)[C@H](c3ccccc3)N1[C@@H]2c1ccc(OCCO)cc1", "composite z-score": 0.833}
{"compound": "C=CCNC(=O)[C@@H]1[C@H]2C(=O)O[C@H](c3ccccc3)[C@H](c3ccccc3)N2[C@H](c2ccccc2OCCO)[C@@]12C(=O)Nc1ccc(C#CC3=CCCCC3)cc12", "composite z-score": 0.865}
{"compound": "O=C1O[C@H](c2ccccc2)[C@H](c2ccccc2)N2[C@H]1[C@@H](C(=O)O)[C@]1(C(=O)Nc3ccc(C#CC4=CCCCC4)cc31)[C@H]2c1ccc(OCCO)cc1", "composite z-score": 1.09}
{"compound": "CN(C)C(=O)[C@]1(CCC(=O)OC(C)(C)C)N=C(c2ccc(OCCCO)cc2)O[C@@H]1c1ccccc1N=[N+]=[N-]", "composite z-score": 1.2}
{"compound": "CC(C)N1C(=O)C[C@@](C(=O)NCc2ccccc2)(c2ccc([N+](=O)[O-])cc2)[C@H]1c1ccc(CO)cc1", "composite z-score": -0.136}
{"compound": "COCC(=C=CC[C@H](O)c1ccc(OCCO)cc1)C[C@H](O)c1cc(Cl)cc(Cl)c1O", "composite z-score": 0.754}
{"compound": "C[N+](C)(C)CCCCCCNC(=O)[C@H]1C[C@H]2C(=O)N3CCC[C@H]3C(=O)N2[C@H]1c1ccc(O)cc1", "composite z-score": -0.0314}

---

# assay remarks: basal RPMI8226 mitochondrial membrane potential changes, profiling panel, cell-based, JC-1 fluorescence, 24 h, 100 nL compound (AID 1169); note: test concentration not given here
# conditions used: RPMI8226 myeloma, JC-1 mitochondrial potential fluorescence, higher = more signal
molecules and their reported z-score
endpoint name: z-score

{"molecule": "C[C@]1(C(=O)NCc2ccccc2)c2ccccc2C(=O)N(Cc2cc(F)cc(C(F)(F)F)c2)[C@H]1c1ccc(CO)cc1", "reported measurement": 0.714}
{"molecule": "CC(C)c1ccc(NN2C(C(O)c3ccc(N(C)C)cc3)C=CC3C(=O)N(c4ccccc4)C(=O)C32)cc1 (centres undefined)", "reported measurement": 0.149}
{"molecule": "O=c1cccc(C=Cc2ccccc2)o1", "reported measurement": 0.629}
{"molecule": "COCC(=C=CC[C@@H](O)c1ccc(CO)o1)CCO", "reported measurement": 0.824}
{"molecule": "O=C/C=C/c1ccc(Cl)cc1", "reported measurement": -0.762}
{"molecule": "Cc1ccccc1C(O)C1C=CC2C(=O)N(C)C(=O)C2N1Nc1ccccc1 (centres undefined)", "reported measurement": -0.317}
{"molecule": "C=CC[C@@]1(C(=O)N2CCOCC2)N=C(c2ccc(OCCCO)cc2)O[C@@H]1c1ccccc1N=[N+]=[N-]", "reported measurement": -0.97}
{"molecule": "N#Cc1ccc(NN2C(C(O)c3ccc([N+](=O)[O-])cc3)C=CC3C(=O)N(c4ccccc4)C(=O)C32)cc1 (centres undefined)", "reported measurement": -0.993}
{"molecule": "NC(=O)NCC#Cc1ccc2c(c1)[C@]1(C(=O)N2)[C@H](C(=O)N2CCCCCCC2)[C@H]2C(=O)O[C@H](c3ccccc3)[C@H](c3ccccc3)N2[C@@H]1c1ccc(OCCO)cc1", "reported measurement": -0.165}

---

# System: Human papillomavirus type 1a E7 protein (residues 1-88)
# assay remarks: HPV1a E7 small-molecule binders, primary screen, biochemical, small-molecule microarray, residues 1-88, 635 nm (AID 1129)
# conditions used: small-molecule microarray binding, fluorescence 635 nm; higher = more signal
Decide using composite z-score: a value greater than or equal to 1 is True, a smaller one is False.

{"compound": "COc1ccc(C(O)C2C=CC3C(=O)NC(=O)C3N2Nc2ccccn2)cc1OCc1ccccc1 (configuration not stated)", "group label": "False"}
{"compound": "COCCOC(=O)N1C(=O)[C@@]2(c3cc(C#Cc4ccc(OC)cc4)ccc31)[C@H](C(=O)N1CCN(c3ncccn3)CC1)[C@H]1C(=O)O[C@H](c3ccccc3)[C@H](c3ccccc3)N1[C@@H]2c1ccc(O)cc1", "group label": "False"}
{"compound": "CC(C)C[C@@H]1NC(=O)[C@H]2C[C@@H](C(=O)NCCCCCCNC(=O)CS)[C@@H](c3cccc(OCCO)c3)N2C1=O", "group label": "True"}
{"compound": "O=c1cccc(C=Cc2ccccc2)o1", "group label": "False"}
{"compound": "O=C1O[C@@H](c2ccccc2)[C@@H](c2ccccc2)N2[C@@H](c3ccc(O)cc3)[C@]3(C(=O)Nc4ccc(C#CC5=CCCCC5)cc43)[C@@H](C(=O)O)[C@H]12", "group label": "True"}
{"compound": "CS(=O)(=O)CCOC(=O)C1=CC(c2ccc(CO)cc2)=CC(C2CC2)N(Cc2cc3c(cc2Br)OCO3)C=C1C(=O)OCCS(C)(=O)=O (configuration not stated)", "group label": "True"}
{"compound": "O=C1C2C=CC(C(O)c3ccc(F)cc3)N(Nc3ccccc3)C2C(=O)N1c1ccccc1 (configuration not stated)", "group label": "True"}
